# protocol-text: Cell viability, AlamarBlue assay
# Format: cell-based
# run-parameters: human, adherent MCF10A obscurin-knockdown or scramble control cells; 25 µM LY294002, 24 h; read-out: decrease in cell viability (reduction of AlamarBlue)
assay-endpoint: cytotoxicity at 24 h, 25 µM

Please report the measured cytotoxicity at 24 h, 25 µM for `O=c1cc(N2CCOCC2)oc2c(-c3ccccc3)cccc12`
~5%
